Origin of the recorded values: the METLIN SMRT retention time set (Domingo-Almenara et al. 2019)

Assay: gradient 5% acetonitrile 3 min, to 50% in 2 min, to 85% in 15 min, held 3 min, 100 µL/min
Conditions: column: Zorbax Extend-C18 2.1 x 50 mm; eluents: water / acetonitrile, 0.1% formic acid
measurement.type: RP-LC retention time (s)

Here is how some molecules turned out for RP-LC retention time.
Brc1ccccc1-c1nn2c(-c3ccccn3)nnc2s1 = 836
CCc1nnc(-c2cccc(OCC(=O)N3CCCc4ccccc43)c2)o1 = 814
O=C1NC2(CCN(C(=O)c3ccccc3)CC2)N=C1c1ccc(Br)cc1 = 861
CCN1CCN(CCCNC(=O)C2CCN(c3nc4cccnc4n(CC)c3=O)CC2)CC1 = 580
CNC(=O)c1cnn(-c2cccc(C)c2)c1-n1cccc1 = 804
Cc1nc2ccn(Cc3ccco3)c(=O)c2cc1C(=O)N1CCC(C)CC1 = 746
CC(=O)N1CCc2cc(S(=O)(=O)C(C)CC(=O)N3CCN(c4cccc(Cl)c4)CC3)ccc21 (stereo not given) = 891
COc1ccc(-c2noc(-c3cccnc3N3CCN(c4ccc(OC)cc4)CC3)n2)cc1 = 1070

P: C=CCN1C(=O)COc2ccc(-c3csc(NC(=O)CC)n3)cc21
Q: CCOC(=O)c1c(C)[nH]c(CCC(=O)NCCN2CCCC2)c1C
INPUT: Which numeric RP-LC retention time is bigger, that of P or that of Q ? Let me know the label of the one you choose.
OUTPUT: P
(P: 837 s, Q: 554 s)
